System: AsPC-1 cells
Experiment Description: AsPC-1 CTG proliferation assay (120 h) (pancreatic cancer, G12D)
Assay type: cell-based
Run Parameters: Homo sapiens, ASPC1
Entries and their measured IC50 follow.
Your answer should be a plain number; it is taken to be in nM.

molecule="C[C@H](Oc1cc(-n2ccc(C(=O)N(C)C3COC3)n2)nc(-c2onc3c2CCC[C@@]32CCCc3sc(N)c(C#N)c32)n1)[C@@H]1CCCN1C [I-60]" subject_of_test="AsPC-1 cells" measurement_type=IC50 output_unit=nM reported=779
molecule="C[C@H](Oc1cc(N2CC3COCC(C2)N3)nc(-c2noc3c2CCC[C@@]32CCCc3sc(N)c(C#N)c32)n1)[C@@H]1CCCN1C [II-160]" subject_of_test="AsPC-1 cells" measurement_type=IC50 output_unit=nM reported=3220
molecule="Cc1nc(-c2cc(O[C@@H](C)[C@@H]3CCCN3C)nc(-c3onc4c3CCC[C@@]43CCCc4sc(N)c(C#N)c43)n2)cs1 [I-24]" subject_of_test="AsPC-1 cells" measurement_type=IC50 output_unit=nM reported=3450

Look up and report measured IC50 for this entry: C[C@H](Oc1cc(-c2ccn(C3CC3)n2)nc(-c2noc3c2CCC[C@@]32CCCc3sc(N)c(C#N)c32)n1)[C@@H]1CCCN1C [II-98]
3340

Respond only with IC50 recorded for CC(=O)N1CCN(c2cc(O[C@@H](C)[C@@H]3CCCN3C)nc(-c3noc4c3CCC[C@@]43CCCc4sc(N)c(C#N)c43)n2)CC12CC2 [II-178]
814

Hello, please tell me recorded IC50 for this one: CO[C@@H]1C[C@@H]([C@H](C)Oc2cc(N3CCN(C)C4(COC4)C3)nc(-c3noc4c3CCC[C@@]43CCCc4sc(N)c(C#N)c43)n2)N(C)C1 [II-153]
577

Specify reported IC50 for the molecule shown: CCOC(=O)c1ccn(-c2cc(O[C@@H](C)[C@@H]3CCCN3C)nc(-c3noc4c3CCC[C@@]43CCCc4sc(N)c(C#N)c43)n2)n1 [II-23]
1640

Input C[C@H](Oc1cc(-n2cnc3cccnc32)nc(-c2noc3c2CCC[C@@]32CCCc3sc(N)c(C#N)c32)n1)[C@@H]1CCCN1C [II-65] , output reported IC50.
3560

Identify the reported IC50 for the following entry. C[C@H](Oc1cc(-n2cc(-c3cccnc3)nn2)nc(-c2noc3c2CCC[C@@]32CCCc3sc(N)c(C#N)c32)n1)[C@@H]1CCCN1C [II-123]
1540

Indicate the recorded IC50 value for this molecule: C[C@H](Oc1cc(N2CCN(C)C2=O)nc(-c2noc3c2CCC[C@@]32CCCc3sc(N)c(C#N)c32)n1)[C@@H]1CCCN1C [II-75]
1560

Output IC50 of CCN1CCN(c2cc(O[C@@H](C)[C@@H]3C[C@@H](F)CN3C)nc(-c3noc4c3CCC[C@@]43CCCc4sc(N)c(C#N)c43)n2)CC12CC2 [II-185]
190

Hello, please tell me recorded IC50 for this one: C[C@H](Oc1cc(N2CCCC3(COC3)C2)nc(-c2noc3c2CCC[C@@]32CCCc3sc(N)c(C#N)c32)n1)[C@@H]1CCCN1C [II-72]
783

Identify the reported IC50 for the following entry. C[C@H](Oc1cc(-n2ccc(C(=O)N[C@@H]3CCOC3)n2)nc(-c2onc3c2CCC[C@@]32CCCc3sc(N)c(C#N)c32)n1)[C@@H]1CCCN1C [I-56]
695

Give me measured IC50, please, for this molecule: C[C@H](Oc1cc(N2CCOC3(COC3)C2)nc(-c2noc3c2CCC[C@@]32CCCc3sc(N)c(C#N)c32)n1)[C@@H]1CCCN1C [II-77]
738
